# experiment_summary: Cell viability / cytotoxicity in the SARS-CoV-2 Huh7.5.1 infectivity assay
# test_settings: human, Huh7.5.1 cells infected with SARS-CoV-2 (MOI 1.0), tested 60 to 0.08 µM, read-out: SARS-CoV-2 Infectivity Cells-Based Assay CC50 (converted)
Attribute: CC50 at 48 h
A number alone suffices; assume µM.

# count of solved cases: 2
S=C(SSC(=S)N1CCOCC1)N1CCOCC1 [RI173, di-Morpholine-thiuram disulfide]    0.3
CCN(CC)C(=S)SSC(=S)N(CC)CC [Disulfiram, reference compound]    0.9

Now let's try a different one.
The molecule listed as CN1CCN(C(=S)SSC(=S)N2CCN(C)CC2)CC1 [RI171, di-4-Methylpiperazine-thiuram disulfide] shows CC50 at 48 h equal to 1.7

###

Listed below: pIC50 values for each entry.
# assay_target: human cathepsin L (Homo sapiens, UniProt P07711)
# Construct: purchased R & D Systems
# Sequence (P07711 114-333): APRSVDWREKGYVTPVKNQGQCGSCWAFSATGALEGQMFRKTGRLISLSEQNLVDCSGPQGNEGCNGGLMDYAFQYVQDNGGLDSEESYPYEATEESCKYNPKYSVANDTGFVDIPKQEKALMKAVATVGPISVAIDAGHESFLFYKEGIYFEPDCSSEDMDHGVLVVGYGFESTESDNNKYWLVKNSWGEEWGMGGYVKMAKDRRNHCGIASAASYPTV
# experiment_summary: Human cathepsin L fluorogenic enzymatic inhibition assay
# Format: biochemical
# test_settings: 1 nM cathepsin L, Z-Phe-Arg-AMC substrate; read-out: Cathepsin L IC50
By convention, pIC50 is the negative base-10 log of a molar concentration.

So, S=C(SSC(=S)N1CCOCC1)N1CCOCC1 [RI173, di-Morpholine-thiuram disulfide] ? Its pIC50 was 5.77

Lab note: measured pIC50 of CN1CCN(C(=S)SSC(=S)N2CCN(C)CC2)CC1 [RI171, di-4-Methylpiperazine-thiuram disulfide] was 5.35

###

# assay_target: UniProtKB P0DTD1
# experiment_summary: SARS-CoV-2 PLpro fluorogenic enzymatic inhibition assay
# Format: biochemical
quantity_measured: IC50 (nM)
Unit nM implied. Number only.

response.value for S=C(SSC(=S)N1CCCC1)N1CCCC1 [RI172, di-Pyrrolidine-thiuram disulfide] (field: IC50) = 700

For reference, reported IC50 for CCOC(=S)SSC(=S)OCC [RI175, O,O-di-Ethyl dithiobis-thioformate] stands at 600

Input CN(C)C(=S)SSC(=S)N(C)C [RI174, tetra-Methyl-thiuram disulfide] . Output IC50: 600

###

# assay_target: SARS-CoV-2 Mpro (Severe acute respiratory syndrome coronavirus 2)
# experiment_summary: SARS-CoV-2 Mpro fluorometric (FRET peptide) enzymatic inhibition assay
# Type: biochemical
# test_settings: 50 nM Mpro, 10 µM MCA-[…]-K(DNP)-K-NH2, no DTT, 37 °C; read-out: Mpro IC50
# maps each entry to its IC50
State the value, then name its unit.

S=C(SSC(=S)N1CCOCC1)N1CCOCC1 [RI173, di-Morpholine-thiuram disulfide]    0.6 µM

Continue with the compound presented below.
The recorded IC50 for CN1CCN(C(=S)SSC(=S)N2CCN(C)CC2)CC1 [RI171, di-4-Methylpiperazine-thiuram disulfide] is 3.2 µM

###

# assay_target: SARS-CoV-2 PLpro (Severe acute respiratory syndrome coronavirus 2)
# experiment_summary: SARS-CoV-2 PLpro fluorogenic enzymatic inhibition assay
# Assay type: biochemical
# test_settings: 24.46 nM PLpro, 50 µM Z-RLRGG-AMC, no DTT, 37 °C; read-out: PLpro IC50
quantity_measured: IC50 (nM)
State just the number; it will be interpreted in nM.

CN1CCN(C(=S)SSC(=S)N2CCN(C)CC2)CC1 [RI171, di-4-Methylpiperazine-thiuram disulfide]    1900

# IC50 (molecule: S=C(SSC(=S)N1CCOCC1)N1CCOCC1 [RI173, di-Morpholine-thiuram disulfide] ) is 200
